- System: wheat (Triticum aestivum var. Lew)
- measurement-description: Postemergence herbicidal activity, wheat
- Type: in vivo
- recorded-conditions: rate of application 0.3 Kg/Ha, rated after 12-17 days
quantity-name: Postemergence herbicidal activity (% control) WHT (%)
Write the number in % without appending the unit.

# compound, units-label, number
rows = [
    ("CC(C)c1nc2c(-n3c(=O)cc(C(F)(F)F)n(C)c3=O)c(F)cc(Cl)c2[nH]1 [Compound 368]", "%", 100),
    ("CC(OC(=O)c1ccccc1)c1cc2c(Cl)cc(F)c(-n3c(=O)cc(C(F)(F)F)n(C)c3=O)c2o1 (stereo not shown) [Compound 248]", "%", 50),
    ("Cn1c(C(F)(F)F)cc(=O)n(-c2c(F)cc(Cl)c3[nH]cnc23)c1=O [Compound 362]", "%", 100),
]

Now for another entry.
Prompt: # get_value(readout='Postemergence herbicidal activity (% control) WHT', item= CCOC(OCC)c1cc2c(Cl)cc(F)c(-n3c(=O)cc(C(F)(F)F)n(C)c3=O)c2o1 [Compound 245] )
Response: 40
